The measurements presented in this section are drawn from paper PMC4370192.

- experimental.target: human βG (hβG) (Homo sapiens)
- Construct: histidine tag (N); made in house; host or cells: E. coli BL21 (DE3)
- Sequence (P08236 23-651): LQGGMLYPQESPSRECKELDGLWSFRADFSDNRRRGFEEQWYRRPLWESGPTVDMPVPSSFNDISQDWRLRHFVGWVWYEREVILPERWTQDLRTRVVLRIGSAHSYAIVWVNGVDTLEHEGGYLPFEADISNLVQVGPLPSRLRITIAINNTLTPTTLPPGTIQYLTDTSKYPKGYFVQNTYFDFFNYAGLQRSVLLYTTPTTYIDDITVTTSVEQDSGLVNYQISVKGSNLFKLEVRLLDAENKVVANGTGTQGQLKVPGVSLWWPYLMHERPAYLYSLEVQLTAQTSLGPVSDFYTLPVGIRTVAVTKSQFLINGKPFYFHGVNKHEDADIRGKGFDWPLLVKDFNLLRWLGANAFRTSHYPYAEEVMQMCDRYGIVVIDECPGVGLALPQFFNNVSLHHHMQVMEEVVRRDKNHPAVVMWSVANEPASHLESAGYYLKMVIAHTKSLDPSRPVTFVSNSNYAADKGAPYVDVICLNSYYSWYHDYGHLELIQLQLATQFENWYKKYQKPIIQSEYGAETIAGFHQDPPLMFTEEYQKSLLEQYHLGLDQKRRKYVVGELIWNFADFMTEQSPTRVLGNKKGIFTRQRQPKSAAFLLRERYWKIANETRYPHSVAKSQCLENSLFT
- experimental.details: In vitro βG-activity assay (pNPG hydrolysis), hβG
- Type: biochemical
- applied.conditions: pH 5.4, percent of activity vs untreated control
measurement.type: hβG activity (%) with 50 μM compound
Give bare numbers, in %.

compound	hβG activity (%) with 50 μM compound
COc1cc(C(=O)N2CCNCC2)cc(OC)c1OC [Compound 6368]	116.03

Provide the reported hβG activity (%) with 50 μM compound of each entry below, same order.
1. Cc1cc(/C=C2\SC(=Nc3ccc(F)cc3)NC2=O)c(C)n1-c1ccc(S(N)(=O)=O)cc1 [Compound 1135]
2. Cn1c(O)c(C=NC(Cc2c[nH]c3ccccc23)C(=O)O)c(=O)n(C)c1=O (centres unmarked) [Compound 5033]
3. Cc1cc(NS(=O)(=O)c2ccc(NC(=O)c3cc(Cl)ccc3[N+](=O)[O-])cc2)nc(C)n1 [Compound 5003]
4. O=C1SCCC1NS(=O)(=O)c1cc(Cl)ccc1Cl (centres unmarked) [Compound 3927]

[A]
[118.10, 116.12, 105.54, 106.86]
